# target under test: UniProt Q05397
# Sequence (Q05397 whole entry): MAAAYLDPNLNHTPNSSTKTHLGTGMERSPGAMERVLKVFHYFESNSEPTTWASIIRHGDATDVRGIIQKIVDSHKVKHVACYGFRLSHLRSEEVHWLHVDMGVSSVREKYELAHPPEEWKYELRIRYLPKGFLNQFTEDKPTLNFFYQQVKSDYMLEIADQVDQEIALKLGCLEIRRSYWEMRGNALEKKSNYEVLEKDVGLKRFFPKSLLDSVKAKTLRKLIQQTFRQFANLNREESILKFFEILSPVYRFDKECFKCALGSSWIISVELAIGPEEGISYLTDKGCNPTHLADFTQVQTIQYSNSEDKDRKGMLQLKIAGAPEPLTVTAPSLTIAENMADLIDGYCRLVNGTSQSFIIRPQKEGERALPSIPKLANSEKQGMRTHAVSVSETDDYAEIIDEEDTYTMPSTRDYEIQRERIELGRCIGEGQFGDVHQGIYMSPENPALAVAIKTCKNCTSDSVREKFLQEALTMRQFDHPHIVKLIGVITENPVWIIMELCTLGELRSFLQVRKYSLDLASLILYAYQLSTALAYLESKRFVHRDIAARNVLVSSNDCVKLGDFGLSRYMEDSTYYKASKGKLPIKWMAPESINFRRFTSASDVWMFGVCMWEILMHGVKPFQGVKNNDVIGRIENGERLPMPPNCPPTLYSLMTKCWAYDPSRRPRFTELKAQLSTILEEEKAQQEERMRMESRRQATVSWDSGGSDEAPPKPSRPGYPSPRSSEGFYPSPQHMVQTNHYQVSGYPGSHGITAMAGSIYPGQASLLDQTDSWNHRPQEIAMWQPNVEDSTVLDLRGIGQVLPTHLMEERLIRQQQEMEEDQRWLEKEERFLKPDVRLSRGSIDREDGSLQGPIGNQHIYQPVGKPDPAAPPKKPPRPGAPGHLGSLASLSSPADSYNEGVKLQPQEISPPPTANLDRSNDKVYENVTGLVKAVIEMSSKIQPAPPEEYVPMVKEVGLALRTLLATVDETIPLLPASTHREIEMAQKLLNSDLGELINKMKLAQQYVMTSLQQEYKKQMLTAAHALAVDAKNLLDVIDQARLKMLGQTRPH
Active and inactive are the calls of the source.
Classes to choose from: active, inactive

Cn1cc(-c2cnn3c(N)c(Br)c([C@@H]4CCCNC4)nc23)cn1; inactive
COc1cc([C@@H]2c3cc4c(cc3[C@H](O)[C@H]3COC(=O)[C@@H]23)OCO4)cc(OC)c1OC; inactive
CNC(=O)c1cc(Oc2ccc(NC(=O)Nc3cc(C(C)(C)C)nn3-c3ccc4ncccc4c3)c(F)c2)ccn1; inactive
CCCCCCCCCCCCCCCCCCOP(=O)([O-])OC1CC[N+](C)(C)CC1; inactive

Query: What call does the record list for O=C(Nc1c[nH]nc1-c1nc2cc(CN3CCOCC3)ccc2[nH]1)NC1CC1 ?
Result: inactive

Query: What call does the record list for CCn1c(C(=O)N(C2CC2)C2CC2)cc2c3c(ncn3C)c(Nc3cc(C)n(C)n3)nc21 ?
Result: inactive

Reference for the values: ChEMBL document CHEMBL3991601
